TESTED_ON: T1, Plasmodium falciparum histidine-rich protein II (HRP-II) (Plasmodium falciparum, UniProt P05227 22-332)
T1 construct: Coating antigen of all ELISAs; also called HRP-II protein; MA-HRPII Ag protein
T1 sequence (looked up): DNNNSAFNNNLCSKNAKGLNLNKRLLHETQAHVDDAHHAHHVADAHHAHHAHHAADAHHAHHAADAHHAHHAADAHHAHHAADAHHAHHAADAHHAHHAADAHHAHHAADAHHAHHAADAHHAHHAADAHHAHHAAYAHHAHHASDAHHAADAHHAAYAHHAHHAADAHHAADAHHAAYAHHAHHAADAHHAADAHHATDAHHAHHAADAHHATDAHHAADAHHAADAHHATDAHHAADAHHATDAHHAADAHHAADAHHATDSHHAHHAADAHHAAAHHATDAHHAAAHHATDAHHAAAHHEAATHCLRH
METHOD_DESCRIPTION: indirect ELISA, four antigen coating concentrations;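 also: optical density read across an antibody dilution series at each antigen coating level, curves plotted on log scale, KD derived as reciprocal of the averaged constant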
pKd: −log10 of the molar value.
VALUE_TYPE: pKd

{"BINDER": "Mutation 1-38 (antibody, mouse IgG2b, kappa, V domains shown, Mutation 1 as framework) VH: EVQLQQSGPEVVKPGASVKISCKASGTTLTDYYMNWVKQSHGKGLEWIGDVNPIQGGTAYQQKFRDKATLTVDKSSNTAYMELRSLTSEDSALYYCTRGAEDYWGQGTTLTVSS VL: DVVLTQTPLSLSVTIGQPASISCKSSQSLLYSNGKIYLNWFQQRPGQSPKRLMYQLSKLDPGIPDRFSGSGSETDFTLKISRVEAEDLGVYYCLQGTYSPQTFGGGTKLEIKR", "OBS_VALUE": 10.05}
{"BINDER": "Mutation 1-52 (antibody, mouse IgG2b, kappa, V domains shown, Mutation 1 as framework) VH: EVQLQQSGPEVVKPGASVKISCKASGTTLTDYYMNWVKQSHGKGLEWIGDINPIQGGTAYQQKFRDKATLTVDKSSNTAYMELRSLTSEDSALYYCTRGAEDYWGQGTTLTVSS VL: DVVLTQTPLSLSVTIGQPASISCKSSQSIIYSNGKIYLNWFQQRPGQSPKRLMYQVSKLDPGIPDRFSGSGSETDFTLKISRVEAEDLGVYYCLQATYYPQTFGGGTKLEIKR", "OBS_VALUE": 9.74}

Recorded values, source patent US20220002395A1.
